Taken from PubChem BioAssay (NCATS).

- methodNotes: Quantitative High-Throughput drug screen in 47 multiple myeloma cell lines against the NCATS MIPE library collection: LP1_DSMZ cell viability assay (AID 1918982); further: nearly all actives have a fitted effect of over 35% in size; further: potency means the concentration at half of the fitted maximal effect
- conditionDetails: LP1 myeloma viability, CellTiter-Glo ATP luminescence, 48 h; series mostly up to 45.8 µM
Records with an inconclusive call do not appear. Active and inactive are the calls of the source. The call rests on the fitted dose curve; in most records, active means well fitted cell-killing curve with a large enough effect; inconclusive means small, poorly fitted or top-dose-only effect, or effect the other way; inactive means no such curve, though single readings can be large or run the other way.
quantityName: Potency

Observe how each entry below is paired with its result.
CNC[C@H](O)c1cccc(O)c1 :: inactive
CCC(C)N(C)C(=O)c1cc2ccccc2c(-c2ccccc2Cl)n1 (stereo not drawn) :: inactive
Cc1oncc1C(=O)Nc1ccc(C(F)(F)F)cc1 :: 10.5 µM (active)
OC(CCN1CCCCC1)(c1ccccc1)C1CC2C=CC1C2 (stereo not drawn) :: inactive
CCCn1c(=O)c2[nH]c(C34CC5CC3C[C@@H](C5)C4)nc2n(CCC)c1=O :: 11.8 µM (active)

Which measured Potency value corresponds to O=C1CCC(N2C(=O)c3ccccc3C2=O)C(=O)N1 (stereo not drawn) ?
inactive

Which measured Potency value corresponds to COc1cc(Nc2ncc3c(n2)-c2ccc(Cl)cc2C(c2c(F)cccc2OC)=NC3)ccc1C(=O)O ?
inactive

Which measured Potency value corresponds to NC(=O)c1ccc(I)c([N+](=O)[O-])c1 ?
inactive

Which measured Potency value corresponds to COCCNCCCn1c(C(=O)CF)c(-c2ccc(C)cc2)c2c(N)ncnc21 ?
7.43 µM (active)

Which measured Potency value corresponds to CC(c1cc2ccccc2s1)N(O)C(N)=O (stereo not drawn) ?
inactive

Which measured Potency value corresponds to O=C(O)CCc1ccc(NCc2cccc(Oc3ccccc3)c2)cc1 ?
inactive

Which measured Potency value corresponds to COc1c(Cl)cc2c([nH]c3cnccc32)c1NC(=O)c1cccnc1C ?
7.43 µM (active)

Which measured Potency value corresponds to N=c1nc(N2CCCCC2)cc(N)n1O ?
inactive

Which measured Potency value corresponds to CCN(c1ccccc1)c1cc(NC)[n+](C)c(C)n1 ?
inactive

Which measured Potency value corresponds to CC(C)(N)C(=O)N[C@H](COCc1ccccc1)C(=O)N1CCC2(CC1)CN(S(C)(=O)=O)c1ccccc12 ?
16.6 µM (active)

Which measured Potency value corresponds to COc1cc2nccc(Oc3ccc(NC(=O)NC4CC4)c(Cl)c3)c2cc1C(N)=O ?
20.9 µM (active)

Which measured Potency value corresponds to O=C1CCc2cc(OCCCCc3nnnn3C3CCCCC3)ccc2N1 ?
inactive

Which measured Potency value corresponds to CC(C)NCC(O)COc1ccc(COCCOC(C)C)cc1 (stereo not drawn) ?
inactive

====

- Test system: NIH3T3
- methodNotes: Cytotoxic Profiling of Annotated Libraries Using Quantitative High-Throughput Screening (AID 1296008); further: nearly all actives have a fitted effect of over 60% in size
- conditionDetails: Five cell lines viability, CellTiter-Glo ATP luminescence, 48-72 h
Results filed as inconclusive are left out. Activity calls are given as the source filed them. The call rests on the fitted dose curve; in most records, active means well fitted inhibition curve with a large enough effect; inconclusive means small, poorly fitted or top-dose-only effect; inactive means flat fitted curve, though single readings scatter.
Log the outcome using a class from active, inactive

Here's what some known entries look like.
Cc1ccccc1C(C(=O)NC1CCCC1)N(C(=O)Cn1cnc2ccccc21)c1cccc(F)c1 (stereo not drawn) :: inactive
CN[C@@H](C)C(=O)N[C@H]1CCCC[C@H]2CC[C@@H](C(=O)N[C@@H](c3ccccc3)c3cn(CCCCc4ccc(CCCCn5cc([C@@H](NC(=O)[C@@H]6CC[C@@H]7CCCC[C@H](NC(=O)[C@H](C)NC)C(=O)N76)c6ccccc6)nn5)cc4)nn3)N2C1=O :: inactive
O=C1CCc2cc(OCCCCc3nnnn3C3CCCCC3)ccc2N1 :: inactive
C1COC(NC(C2CC2)C2CC2)=N1 :: inactive
CC(c1cc2ccccc2s1)N(O)C(N)=O (stereo not drawn) :: inactive
Cc1ccc(NC(=O)c2cccc(C(C)(C)C#N)c2)cc1Nc1ccc2ncn(C)c(=O)c2c1 :: active
CCn1c(-c2nonc2N)nc2c(C#CC(C)(C)O)ncc(OC[C@H]3CCCNC3)c21 :: inactive

Record request — test call for CNC(=O)c1ccc(C)c(-n2c(C)cc(OCc3ccc(F)cc3F)c(Br)c2=O)c1
inactive

====

- methodNotes: Quantitative High-Throughput drug screen in 47 multiple myeloma cell lines against the NCATS MIPE library collection: KMS28PE_JCRB cell viability assay (AID 1918983); further: nearly all actives have a fitted effect of over 35% in size
- conditionDetails: KMS28PE multiple myeloma viability, CellTiter-Glo ATP, 48 h; series mostly up to 45.8 µM
Results filed as inconclusive are left out. Active and inactive are the calls of the source. Calls come from the whole dose curve; as a rule, active = well fitted cell-killing curve with a large enough effect; inconclusive = small, poorly fitted or top-dose-only effect, or effect the other way; inactive = no such curve, though single readings can be large or run the other way.
Log the outcome using a class from Y = active, N = inactive

Cc1ccc(NC(=O)c2cccc(C(C)(C)C#N)c2)cc1Nc1ccc2ncn(C)c(=O)c2c1 :: Y
CNCc1ccc(-c2[nH]c3cc(F)cc4c3c2CCNC4=O)cc1 :: N

Record request — test call for Cn1cc(-c2ccc3nnc(C(F)(F)c4ccc5ncccc5c4)n3n2)cn1
N

====

- methodNotes: qHTS of pediatric cancer cell lines to identify multiple opportunities for drug repurposing: Confirmatory screen for control Hh wild type fibroblast cells (AID 1347121); further: nearly all actives have a fitted effect of over 70% in size
- conditionDetails: viability qHTS; series mostly up to 45.9 µM
Records with an inconclusive call do not appear. Activity calls are given as the source filed them. Calls come from the whole dose curve; as a rule, active = well fitted cell-killing curve with a large enough effect; inconclusive = small, poorly fitted or top-dose-only effect, or effect the other way; inactive = flat fitted curve, though single readings scatter.
Log the outcome using a class from active, inactive

Here's what some known entries look like.
COCC(=O)NCC=Cc1ccc2ncnc(Nc3ccc(Oc4ccc(C)nc4)c(C)c3)c2c1 :: active
CO[C@@H]1[C@H](N(C)C(=O)c2ccccc2)C[C@H]2O[C@]1(C)n1c3ccccc3c3c4c(c5c6ccccc6n2c5c31)C(=O)NC4 :: inactive
Cn1cnc2c(F)c(Nc3ccc(Br)cc3Cl)c(C(=O)NOCCO)cc21 :: inactive
O=NN(CCCl)C(=O)NCCCl :: inactive
NC(=O)c1ccc(I)c([N+](=O)[O-])c1 :: inactive

Record request — test call for Nc1nc2c(ncn2COCCO)c(=O)[nH]1
inactive

Record request — test call for CCOc1ccn(-c2ccc(F)cc2)c(=O)c1C(=O)Nc1ccc(Oc2ccnc(N)c2Cl)c(F)c1
inactive

Record request — test call for NCCCC(N)(C(=O)O)C(F)F (stereo unspecified)
inactive

Record request — test call for C#Cc1cccc(Nc2ncnc3cc(OCCOC)c(OCCOC)cc23)c1
inactive

Record request — test call for CS(=O)(=O)c1ccc(C(=O)Nc2ccc(Cl)c(-c3ccccn3)c2)c(Cl)c1
inactive

Record request — test call for C[C@]1(c2nc3c(C(N)=O)cccc3[nH]2)CCCN1
inactive

Record request — test call for Cc1oncc1C(=O)Nc1ccc(C(F)(F)F)cc1
inactive

Record request — test call for CN(C)c1ccc(C2Nc3ccc4ccccc4c3C3=C2C(=O)CC(C)(C)C3)cc1Br (stereo unspecified)
inactive

Record request — test call for CNCc1ccc(-c2[nH]c3cc(F)cc4c3c2CCNC4=O)cc1
inactive

====

- methodNotes: Identifying Small Molecule Inhibitors of Pancreatic Cancer Stem Cells (SN12C, Adherent) (AID 1259358);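 further: cell survival measured after 48 h of compound exposure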
- conditionDetails: viability/growth inhibition; series mostly up to 46.1 µM
- Source text: Progenitor-like cancer cells, often referred to as cancer stem cells (CSC), are believed to be the drivers of therapeutic resistance and rapid recurrence. CSCs are postulated to reside in specific niches characterized by low oxygen tension, limited nutrient supply, and high redox load. Selectively targeting CSC, alone or in combination with cytotoxic agents, as a means to produce durable remissions is an appealing concept. […]
Records with an inconclusive call do not appear. Calls of active or inactive are those of the source. Calls follow the shape of the dose curve; as a rule, active = well fitted cell-killing curve with a large enough effect; inconclusive = small, poorly fitted or top-dose-only effect; inactive = flat fitted curve, though single readings scatter.
Log the outcome using a class from active, inactive

Fc1ccc(Cl)cc1-c1nc(Nc2ccncc2)c2nccnc2n1 :: inactive
O=C(C1CC1)N1CC[C@@H](Cn2c(-c3ccc(-c4ccc5occc5c4)cc3)nc3cnccc32)C1 :: inactive
Cc1c(C)c2c(c(C)c1O)CCC(C)(COc1ccc(CC3SC(=O)NC3=O)cc1)O2 (centres undefined) :: inactive

Record request — test call for O=C(O)[C@@H](c1ccc(OCc2ccc3ccccc3n2)cc1)C1CCCC1
inactive

====

- methodNotes: qHTS of pediatric cancer cell lines to identify multiple opportunities for drug repurposing: Primary screen for RD cells (AID 1347104); further: nearly all actives have a fitted effect of over 55% in size
- conditionDetails: RD rhabdomyosarcoma viability, CellTiter-Glo luminescence, 48 h; series mostly up to 46 µM
Records with an inconclusive call do not appear. Activity calls are given as the source filed them. Calls come from the whole dose curve; as a rule, active = well fitted cell-killing curve with a large enough effect; inconclusive = small, poorly fitted or top-dose-only effect; inactive = flat fitted curve, though single readings scatter.
Log the outcome using a class from active, inactive

Record request — test call for CCCCNc1cc(C(=O)O)cc(S(N)(=O)=O)c1Oc1ccccc1
inactive

Record request — test call for Cn1c(=O)c(F)c(Nc2ccc(I)cc2F)c2c(=O)n(C[C@@H](O)CO)cnc21
active

Record request — test call for Cn1cc(-c2ccc3nnc(C(F)(F)c4ccc5ncccc5c4)n3n2)cn1
inactive

====

- methodNotes: Quantitative High-Throughput drug screen in 47 multiple myeloma cell lines against the NCATS MIPE library collection: ARP1_JJKsccF8 cell viability assay (AID 1918928; further: nearly all actives have a fitted effect of over 40% in size;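 on viability: 100% = DMSO only wells and 0% = medium only wells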)
- conditionDetails: ARP1 myeloma cells viability, CellTiter-Glo ATP, 48 h; series mostly up to 45.8 µM
Results filed as inconclusive are left out. Active and inactive are the calls of the source. Calls come from the whole dose curve; as a rule, active = well fitted cell-killing curve with a large enough effect; inconclusive = small, poorly fitted or top-dose-only effect, or effect the other way; inactive = no such curve, though single readings can be large or run the other way.
Log the outcome using a class from 1 (yes) (active), 0 (no) (inactive)

Here's what some known entries look like.
Cc1[nH]c(=O)c(C#N)cc1-c1ccc2nccn2c1 :: 0 (no)
Cn1cnc2c(F)c(Nc3ccc(Br)cc3Cl)c(C(=O)NOCCO)cc21 :: 0 (no)
CCCn1c(=O)c2[nH]c(C34CC5CC3C[C@@H](C5)C4)nc2n(CCC)c1=O :: 1 (yes)
COc1nc(-c2ccc3c(c2)OCO3)n(-c2ccc(NC(=O)CSc3ccccc3)cc2)n1 :: 0 (no)
O=C(O)[C@@H](c1ccc(OCc2ccc3ccccc3n2)cc1)C1CCCC1 :: 0 (no)

Record request — test call for C[C@]12CC[C@H](O)CC1=CC[C@@H]1[C@H]2CC[C@]2(C)C(c3cccnc3)=CC[C@H]12
0 (no)

Record request — test call for COc1ccc2nc(S(=O)Cc3ncc(C)c(OC)c3C)[nH]c2c1 (stereo not given)
0 (no)

Record request — test call for CCN(c1ccccc1)c1cc(NC)[n+](C)c(C)n1
1 (yes)

Record request — test call for O=C(c1cc(Cc2n[nH]c(=O)c3ccccc23)ccc1F)N1CCN(C(=O)C2CC2)CC1
0 (no)

Record request — test call for CC(=O)Oc1ccccc1C(=O)O
0 (no)

Record request — test call for CC1(C)Cc2c(-c3ccccc3)c(-c3ccc(Cl)cc3)c(CC(=O)O)n2C1
1 (yes)
